Hey, just so you know, these numbers are from patent US8188109B2.

Test system: cisplatin resistant A2780 cells (A2780/CP)
ASSAY METHOD TEXT: Cell growth assay (crystal violet dye), A2780/CP cells
Format: cell-based, human
EXPERIMENTAL PARAMETERS: Homo sapiens, A2780C/P, 72 hrs exposure, read-out: IC50 (cell growth inhibition)
MEASUREMENT NAME: IC50 (nM)

Below are worked cases with known answers.
COc1ccc2c(CCC(c3ccccc3)c3ccccc3)c3[n+](cc2c1OC)CCc1cc2c(cc1-3)OCO2	1000
COc1ccc(CCc2c3[n+](cc4c(OC)c(OC)ccc24)CCc2cc4c(cc2-3)OCO4)cc1	1000
COc1ccc2c(CCc3ccc(Cl)cc3)c3[n+](cc2c1OC)CCc1cc2c(cc1-3)OCO2	1000
COc1ccc2cc3[n+](cc2c1OC)CCc1cc2c(cc1-3)OCO2 [Berberine, reference compound]	2500

A. COc1ccc2c(Cc3ccccc3)c3[n+](cc2c1OC)CCc1cc2c(cc1-3)OCO2.[I-] [Comp Ex, reference compound]
B. COc1ccc2c(CCCc3ccccc3)c3[n+](cc2c1OC)CCc1cc2c(cc1-3)OCO2
Ask: Param pair: A , B . Output: the one whose IC50 is numerically greater. Write the label of whichever entry you select.
Reply: A
(A: 3300 nM, B: 600 nM)

====

System: HCT 116 colon carcinoma cell line
ASSAY METHOD TEXT: Cell proliferation MTT assay, HCT 116
Format: cell-based
EXPERIMENTAL PARAMETERS: Homo sapiens, HCT-116, 24 h, HCT 116, compound at 10 uM, 24 h + 24 h recovery in drug-free medium; read-out: MTT cell proliferation, percentage compared to control cells considered as 100%
MEASUREMENT NAME: activity at 10 µM (%)
Write the value in % as a bare number.

COc1cc([C@@H]2c3cc4c(cc3[C@@H](O[C@@H]3O[C@@H]5CO[C@@H](C)O[C@H]5[C@H](O)[C@H]3O)[C@H]3COC(=O)[C@H]23)OCO4)cc(OC)c1O [Etoposide, reference compound]	96.2
COc1ccc2c(Cc3ccccc3)c3[n+](cc2c1OC)CCc1cc2c(cc1-3)OCO2.[I-] [Comp Ex, reference compound]	22.2
COc1ccc2c(CCCc3ccccc3)c3[n+](cc2c1OC)CCc1cc2c(cc1-3)OCO2	34.8

Ask: Given the entry COc1ccc2cc3[n+](cc2c1OC)CCc1cc2c(cc1-3)OCO2 [Berberine, reference compound] , report its measured activity at 10 µM.
Reply: 93.3

====

Test system: HeLa cells
ASSAY METHOD TEXT: Cell proliferation MTT assay, HeLa
Type: cell-based
EXPERIMENTAL PARAMETERS: Homo sapiens, 24 h, compound at 1 uM, 24 h + 24 h recovery in drug-free medium, read-out: MTT cell proliferation, percentage compared to control cells considered as 100%
Measured activity at 1 µM, listed per entry.
Report as a plain number; the unit % is understood.

Worked cases, activity at 1 µM given:
COc1ccc2c(CCc3ccc(Cl)cc3)c3[n+](cc2c1OC)CCc1cc2c(cc1-3)OCO2	59.4
COc1cc([C@@H]2c3cc4c(cc3[C@@H](O[C@@H]3O[C@@H]5CO[C@@H](C)O[C@H]5[C@H](O)[C@H]3O)[C@H]3COC(=O)[C@H]23)OCO4)cc(OC)c1O [Etoposide, reference compound]	59.5
COc1ccc2cc3[n+](cc2c1OC)CCc1cc2c(cc1-3)OCO2 [Berberine, reference compound]	168
COc1ccc2c(Cc3ccccc3)c3[n+](cc2c1OC)CCc1cc2c(cc1-3)OCO2.[I-] [Comp Ex, reference compound]	93.6

Switching to the query record.
Ask: Given the compound COc1ccc2c(CCC(c3ccccc3)c3ccccc3)c3[n+](cc2c1OC)CCc1cc2c(cc1-3)OCO2 , what is its reported activity at 1 µM?
Reply: 45.8

====

Test system: HeLa cells
ASSAY METHOD TEXT: Cell proliferation MTT assay, HeLa
Type: cell-based
EXPERIMENTAL PARAMETERS: Homo sapiens, 24 h, compound at 1 uM, read-out: MTT cell proliferation, percentage compared to control cells considered as 100%
MEASUREMENT NAME: activity at 1 µM (%)
Express the result in % but write the number alone.

Ask: Fill in the blank: the reported activity at 1 µM of COc1ccc2c(CCC(c3ccccc3)c3ccccc3)c3[n+](cc2c1OC)CCc1cc2c(cc1-3)OCO2 is ____.
Reply: 64

Ask: I'd like to know its activity at 1 µM. The compound in question is COc1cc([C@@H]2c3cc4c(cc3[C@@H](O[C@@H]3O[C@@H]5CO[C@@H](C)O[C@H]5[C@H](O)[C@H]3O)[C@H]3COC(=O)[C@H]23)OCO4)cc(OC)c1O [Etoposide, reference compound]
Reply: 94.3

Ask: If you can, please state the reported activity at 1 µM value of COc1ccc2c(CCc3ccc(Cl)cc3)c3[n+](cc2c1OC)CCc1cc2c(cc1-3)OCO2 .
Reply: 92.1

Ask: Name the recorded activity at 1 µM for COc1ccc2cc3[n+](cc2c1OC)CCc1cc2c(cc1-3)OCO2 [Berberine, reference compound] .
Reply: 178

Ask: What measured activity at 1 µM goes with COc1ccc2c(Cc3ccccc3)c3[n+](cc2c1OC)CCc1cc2c(cc1-3)OCO2.[I-] [Comp Ex, reference compound] ?
Reply: 139

====

System: HeLa cells
ASSAY METHOD TEXT: Cell proliferation MTT assay, HeLa
Assay type: cell-based
EXPERIMENTAL PARAMETERS: Homo sapiens, 24 h, compound at 10 uM, 24 h + 24 h recovery in drug-free medium, read-out: MTT cell proliferation, percentage compared to control cells considered as 100%
// reported activity at 10 µM per item
# unit: % | format: bare number

Ask: Name the reported activity at 10 µM value associated with the compound COc1ccc2c(CCCc3ccccc3)c3[n+](cc2c1OC)CCc1cc2c(cc1-3)OCO2
Reply: 41.3

Ask: Report activity at 10 µM for COc1cc([C@@H]2c3cc4c(cc3[C@@H](O[C@@H]3O[C@@H]5CO[C@@H](C)O[C@H]5[C@H](O)[C@H]3O)[C@H]3COC(=O)[C@H]23)OCO4)cc(OC)c1O [Etoposide, reference compound] please.
Reply: 1

Ask: Report activity at 10 µM for COc1ccc2c(CCc3ccc(Cl)cc3)c3[n+](cc2c1OC)CCc1cc2c(cc1-3)OCO2 please.
Reply: 45.4

Ask: Look at this compound and give its reported activity at 10 µM. COc1ccc2c(CCC(c3ccccc3)c3ccccc3)c3[n+](cc2c1OC)CCc1cc2c(cc1-3)OCO2
Reply: 11.3

Ask: I am curious: what activity at 10 µM value has been reported for COc1ccc2cc3[n+](cc2c1OC)CCc1cc2c(cc1-3)OCO2 [Berberine, reference compound] ?
Reply: 92.9

Ask: What value of activity at 10 µM has been recorded for this entry: COc1ccc(CCc2c3[n+](cc4c(OC)c(OC)ccc24)CCc2cc4c(cc2-3)OCO4)cc1
Reply: 60.8

Ask: Which activity at 10 µM reading was recorded for the compound COc1ccc2c(CCc3c[nH]c4ccccc34)c3[n+](cc2c1OC)CCc1cc2c(cc1-3)OCO2 ?
Reply: 33.5

Ask: So what does the record say about activity at 10 µM for COc1ccc2c(Cc3ccccc3)c3[n+](cc2c1OC)CCc1cc2c(cc1-3)OCO2.[I-] [Comp Ex, reference compound] ?
Reply: 74.5

====

Tested on: 2008 cell line (serous cystadenocarcinoma of the ovary)
ASSAY METHOD TEXT: Cell growth assay (crystal violet dye), 2008 cells
Assay type: cell-based, human
EXPERIMENTAL PARAMETERS: Homo sapiens; 2008 cells, 72 hrs exposure; read-out: IC50 (cell growth inhibition)
pIC50: −log10 of the molar value.
MEASUREMENT NAME: pIC50

Here are 4 compounds together with their reported answers.
COc1ccc2c(CCCc3ccccc3)c3[n+](cc2c1OC)CCc1cc2c(cc1-3)OCO2	5.44
O=c1[nH]cc(F)c(=O)[nH]1 [5-FU, 5-fluoro-2,4(1H,3H)-pyrimidinedione, reference compound]	5.00
COc1ccc2c(Cc3ccccc3)c3[n+](cc2c1OC)CCc1cc2c(cc1-3)OCO2.[I-] [Comp Ex, reference compound]	5.04
COc1ccc2c(CCc3ccc(Cl)cc3)c3[n+](cc2c1OC)CCc1cc2c(cc1-3)OCO2	5.24

1. COc1ccc(CCc2c3[n+](cc4c(OC)c(OC)ccc24)CCc2cc4c(cc2-3)OCO4)cc1
2. COc1ccc2c(CCC(c3ccccc3)c3ccccc3)c3[n+](cc2c1OC)CCc1cc2c(cc1-3)OCO2
Ask: Of the pair 1 and 2 , name the member with the lesser recorded pIC50. Output the label that corresponds to your choice.
Reply: 1
